Origin of measurements: the NIST ThermoML archive (doi:10.1021/je060139a)

Listed molecules paired with reported surface tension liquid-gas
Test: xn = mol fraction of the nth substance listed
Conditions: 308.15 K, Wilhelmy plate method, x1 = 0.35
Write it as a number; the unit mN/m goes unstated.

Please review the following examples before continuing.
COC(=O)c1ccccc1 [methyl benzoate] + CCO	26.2
CCC(=O)OCc1ccccc1 [benzyl propanoate] + CCO	25.8

surface tension liquid-gas for CCOC(=O)CC(C)C [ethyl 3-methylbutanoate] + CCO is 21.91
